target: BCRP (Homo sapiens); assay: In vitro BCRP inhibition, HEK293-BCRP membrane vesicles, rosuvastatin probe; assay type: biochemical
Sequence (Q9UNQ0 whole entry): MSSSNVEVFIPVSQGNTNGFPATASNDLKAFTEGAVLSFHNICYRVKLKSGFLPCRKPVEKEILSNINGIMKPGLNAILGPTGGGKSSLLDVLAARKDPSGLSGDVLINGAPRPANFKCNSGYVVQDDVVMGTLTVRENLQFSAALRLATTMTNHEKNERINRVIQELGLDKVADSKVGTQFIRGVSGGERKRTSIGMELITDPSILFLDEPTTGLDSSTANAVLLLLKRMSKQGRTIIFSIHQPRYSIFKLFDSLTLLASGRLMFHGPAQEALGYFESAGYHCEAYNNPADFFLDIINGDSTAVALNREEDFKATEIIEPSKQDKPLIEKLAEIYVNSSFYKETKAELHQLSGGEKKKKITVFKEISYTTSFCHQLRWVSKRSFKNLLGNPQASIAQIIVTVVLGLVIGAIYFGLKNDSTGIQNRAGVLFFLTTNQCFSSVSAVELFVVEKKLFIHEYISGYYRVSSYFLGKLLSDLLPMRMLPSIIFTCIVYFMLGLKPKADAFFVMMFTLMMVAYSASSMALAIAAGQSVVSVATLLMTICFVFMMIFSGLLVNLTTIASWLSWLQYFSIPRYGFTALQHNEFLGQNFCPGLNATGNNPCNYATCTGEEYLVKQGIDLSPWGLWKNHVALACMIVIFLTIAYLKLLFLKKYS
Give pIC50 for every item shown.
Formally, pIC50 is defined as -log10 of the concentration c, with c in mol/L.

## Task Record request: pIC50 value, item CCCN(CCC)S(=O)(=O)c1ccc(C(=O)O)cc1 [Probenecid]
## Result 3.67

## Task Proceed to COc1ccnc(C[S+]([O-])c2nc3ccc(OC(F)F)cc3[nH]2)c1OC (stereo not shown) [Pantoprazole]
## Result 5.21

## Task Also CC(C)c1noc(N2CCC(COc3ccc(-c4ccc(S(C)(=O)=O)cc4)nc3)CC2)n1 [GSK1292263] , if possible.
## Result 5.52

## Task And the next one, COC(=O)N[C@H](C(=O)N1CCC[C@H]1c1nc(-c2ccc3c(c2)O[C@@H](c2ccccc2)n2c-3cc3cc(-c4c[nH]c([C@@H]5CCCN5C(=O)[C@@H](NC(=O)OC)C(C)C)n4)ccc32)c[nH]1)C(C)C [Elbasvir] ?
## Result 6.85

## Task Would you kindly repeat that for CC1=NN(c2ccc(C)c(C)c2)C(=O)/C1=N\Nc1cccc(-c2cccc(C(=O)O)c2)c1O [Eltrombopag] ?
## Result 6.02

## Task Would you kindly repeat that for C[C@H]1CN(C2COC2)CCN1c1ccc(Nc2cc(-c3ccnc(N4CCn5c(cc6c5CC(C)(C)C6)C4=O)c3CO)cn(C)c2=O)nc1 [Fenebrutinib] ?
## Result 6.20

## Task Queued: CC[C@H](Nc1ncnc2[nH]cnc12)c1nc2cccc(F)c2c(=O)n1-c1ccccc1 [Idelalisib]
## Result 4.26

## Task Record: COC[C@H]1C[C@@H](c2ncc(-c3ccc4c(c3)COc3cc5c(ccc6nc([C@@H]7CC[C@H](C)N7C(=O)[C@@H](NC(=O)OC)C(C)C)[nH]c65)cc3-4)[nH]2)N(C(=O)[C@H](NC(=O)OC)c2ccccc2)C1 [Velpatasvir]
## Result 7.05

## Task What do you have for CC(C)(C)c1ccc(S(=O)(=O)Nc2ccc(Cl)cc2C(=O)c2cc[n+]([O-])cc2)cc1 [Vercirnon] ?
## Result 5.48

## Task Record: C[C@](O)(COc1ccc(C#N)cc1)C(=O)Nc1ccc(C#N)c(C(F)(F)F)c1 [Enobosarm]
## Result 5.96

// provenance: paper PMC8452302
